target: Prostaglandin E synthase (Homo sapiens, UniProt O14684); assay: Inhibition of mPGES-1 from human A549 cell microsomal membranes using PGH2 as substrate incubated 15 mins prior to substrate addition measured after 1 min by RP-HPLC analysis
Sequence (O14684 whole entry): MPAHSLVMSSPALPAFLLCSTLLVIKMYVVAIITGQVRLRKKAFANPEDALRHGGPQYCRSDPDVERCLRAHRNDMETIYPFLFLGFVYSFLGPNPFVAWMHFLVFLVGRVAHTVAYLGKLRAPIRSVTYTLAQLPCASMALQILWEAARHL
# strict inequality: IC50 < 1000 nM yields MET, everything else yields NOT MET

Please check: IC50 for CCCCC(Sc1nc(Cl)cc(Nc2nc(-c3ccc(Cl)cc3)cs2)n1)C(=O)O (stereo not drawn) , strictly under 1000 nM or not?
NOT MET

Would you kindly verify if IC50 of CCCCCCC(Sc1nc(Cl)cc(Nc2nc(-c3ccc(OC)cc3)cs2)n1)C(=O)O (stereo not drawn) is strictly less than 1000 nM?
NOT MET

In plain terms, does CCCCCCC(Sc1nc(Cl)cc(Nc2nc(-c3ccc(Br)cc3)c(C)s2)n1)C(=O)O (stereo not drawn) come in under 1000 nM for IC50?
NOT MET

hey, is IC50 for CCCCCCC(Sc1nc(Cl)cc(Nc2nc(-c3ccc(C)cc3)cs2)n1)C(=O)O (stereo not drawn) lower than 1000 nM or not?
MET

Please check: IC50 for CCCCCCC(Sc1nc(Cl)cc(Nc2nc(-c3ccccc3)cs2)n1)C(=O)O (stereo not drawn) , strictly under 1000 nM or not?
MET

State whether 1000 nM exceeds IC50 recorded for CCCCCCC(Sc1nc(Cl)cc(Nc2nc(-c3ccc(Br)cc3)cs2)n1)C(=O)O (stereo not drawn) .
MET

Could you please tell me whether IC50 recorded for CCCCCCC(Sc1nc(Cl)cc(Nc2nc(-c3ccc(Cl)cc3)cs2)n1)C(=O)O (stereo not drawn) is less than 1000 nM?
MET

Take the compound CCC(Sc1nc(Cl)cc(Nc2nc(-c3ccc(Cl)cc3)cs2)n1)C(=O)O (stereo not drawn) and say whether its IC50 is less than 1000 nM.
NOT MET
